Reference source for all entries: the supplement of paper PMC8728848

target: Kdn(a2-3)Gal(b1-4)Glc
method description: glycan array binding signal (z-score within array); higher = stronger binding
measurement parameters: glycan notation: IUPAC condensed, linker removed
The full list was thinned out, with the strongest signals kept by preference.

- binder: "SCA (Schizophyllum commune) (protein) MGIDQGVYLITNAGSGTAATLKDGYVKGWERIKGKEQLNQLWFVKSVKTSASDPGYAAFNLATNKVLDLEKGLADRGTPILGWDYHEGDNQHWVIKKQADGKYYKIQSVKTQTFVDLNNGGKDNGTKIQGWVGSWDETNSHQRWVFNQFSATGSRIKSILDTHPKIHGKVIVEWPDRIYFTPDQYIFEAIWAKTGLADIKPRDPLFQSEAYEKVFKGWVVSRAQEIIKVDGFDILVGSLSLVEKSTQKIKVLDVSVRTSDDKSPDLSQIVFFDPESGRTLVDIPEGYEVNSVII"
  glycan array binding signal (z-score): -0.152
- binder: "EEA (Euonymus europaeus) (protein) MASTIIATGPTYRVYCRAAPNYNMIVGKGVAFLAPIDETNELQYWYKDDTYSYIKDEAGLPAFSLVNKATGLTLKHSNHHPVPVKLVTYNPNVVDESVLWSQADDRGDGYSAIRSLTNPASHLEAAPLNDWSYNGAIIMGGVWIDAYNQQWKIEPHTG"
  glycan array binding signal (z-score): -0.177
